- studyTarget: adenosine A1 receptor (Cavia porcellus)
- Construct: from tissue; host or cells: isolated guinea pig left atria
- Sequence (P47745 1-326): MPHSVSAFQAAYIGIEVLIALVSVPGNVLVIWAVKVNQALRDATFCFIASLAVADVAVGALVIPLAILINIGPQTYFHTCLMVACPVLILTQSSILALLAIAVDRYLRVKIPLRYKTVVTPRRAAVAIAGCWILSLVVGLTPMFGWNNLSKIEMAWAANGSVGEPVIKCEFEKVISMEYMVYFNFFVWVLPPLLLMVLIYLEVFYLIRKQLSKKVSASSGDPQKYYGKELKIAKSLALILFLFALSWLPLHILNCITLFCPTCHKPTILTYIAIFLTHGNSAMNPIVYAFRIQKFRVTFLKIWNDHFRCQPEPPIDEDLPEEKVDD
- assayComment: A1 in vitro functional test: negative inotropic response, left atria, antagonism of NECA
- Format: cell-based, guinea pig
- conditionContext: guinea pig left atria, electrically evoked twitch, NECA agonist, 31° C, Schild plot; read-out: A1 KB (antagonist dissociation constant)
quantityKind: Kb (nM)
Answers are plain numbers, in nM.

Would you please look over these solved cases?
INSERT INTO results (molecule, quantitykind, measurement) VALUES
  ('Cn1c(N2CCCCC2)nc2c(N[C@H]3C[C@H]4CC[C@@H]3C4)ncnc21 (relative stereo)', 'Kb', 240),
  ('Cn1cnc2c(N[C@H]3C[C@@H]4C[C@H]3C[C@H]4O)ncnc21 (relative stereo)', 'Kb', 2950),
  ('Cn1cnc2c(N[C@@H]3C[C@H]4C[C@@H]3c3ccc(O)cc34)ncnc21 (relative stereo)', 'Kb', 275),
  ('Cn1c(Br)nc2c(N[C@H]3C[C@H]4CC(=O)[C@@H]3C4)ncnc21 (relative stereo)', 'Kb', 115);

Provide Kb for all items below, preserving their order.
1. CSc1nc2c(N[C@H]3C[C@H]4CC[C@@H]3C4)ncnc2n1C (relative stereo)
2. CC(C)N(C)c1nc2c(N[C@H]3C[C@@H]4C[C@H]3C[C@@H]4O)ncnc2n1C (relative stereo)
3. Cn1c(C#N)nc2c(N[C@H]3C[C@H]4CC[C@@H]3C4)ncnc21 (relative stereo)
4. Cn1cnc2c(N[C@H]3C[C@H]4C[C@@H]3C[C@@H]4O)ncnc21 (relative stereo)

RESULT:
65
4
81
1310
